- systemName: T1, human TL1A extracellular domain with N-terminal HIS and FLAG tag (human, UniProt O95150 72-251)
- T1 construct: whole entry named. ~70 kDa fraction purified by gel filtration
- T1 sequence: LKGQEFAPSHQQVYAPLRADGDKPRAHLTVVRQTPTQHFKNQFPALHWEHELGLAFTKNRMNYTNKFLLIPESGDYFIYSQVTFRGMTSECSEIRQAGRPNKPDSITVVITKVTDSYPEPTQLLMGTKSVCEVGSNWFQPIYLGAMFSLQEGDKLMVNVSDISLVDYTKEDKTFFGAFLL
- assay: SPR run 1; purified antibody on Protein A; TL1A 10 ug/mL; timepoint 59
- Description: 1.5. Antibody expression and antigen binding as determined by SPR. Using a CM5 sensor chip (GE Healthcare) Protein A (Pierce) was coupled to the chip surface using an amine coupling kit (GE Healthcare). Protein A was coupled on flow cell 1 and 2 (or alternatively 3 and 4) using a BIACORE® T200. […] At the end of injection of the supernatant or purified antibody the change in response units was measured. […] The response units were measured prior to the end of the dissociation phase. […]
The entries below come with measured TL1A Binding Level (Early) values attached.
Give just the number in RU; leave the unit off.

Some solved cases for reference:
320-186 (antibody, human IgG1, name in Kabat numbering, V domains shown, human IgG1, lambda) VH: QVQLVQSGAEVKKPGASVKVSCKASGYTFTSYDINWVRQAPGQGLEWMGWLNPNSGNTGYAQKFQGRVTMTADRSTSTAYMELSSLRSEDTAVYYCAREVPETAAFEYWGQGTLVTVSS VL: QSVLTQPPSVSGAPGQRVTISCTSSSSDIGAGLGVHWYQQLPGTAPKLLIEGYYNRPSGVPDRFSGSKSGTSASLTITGLQPEDEGDYYCQSYDGTLSALFGGGTKLTVLG : 136
320-190 (antibody, human IgG1, name in Kabat numbering, V domains shown, human IgG1, lambda) VH: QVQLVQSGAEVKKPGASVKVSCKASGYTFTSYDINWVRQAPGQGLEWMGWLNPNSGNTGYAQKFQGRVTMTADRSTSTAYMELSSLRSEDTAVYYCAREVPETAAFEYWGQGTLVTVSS VL: QSVLTQPPSVSGAPGQRVTISCTSSSSDIGAGLGVHWYQQLPGTAPKLLIEGYYNRPSGVPDRFSGSKSGTSASLTITGLWPEDEGDYYCQSYDGTLSALFGGGTKLTVLG : 136

Q: Complete the entry with TL1A Binding Level (Early) for 320-189 (antibody, human IgG1, name in Kabat numbering, V domains shown, human IgG1, lambda) VH: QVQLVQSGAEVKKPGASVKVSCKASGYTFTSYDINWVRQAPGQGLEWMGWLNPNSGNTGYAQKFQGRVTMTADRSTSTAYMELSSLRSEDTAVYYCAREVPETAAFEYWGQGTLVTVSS VL: QSVLTQPPSVSGAPGQRVTISCTSSSSDIGAGLGVHWYQQLPGTAPKLLIEGYYNRPSGVPDRFSGSKSGTSASLTITGLKPEDEGDYYCQSYDGTLSALFGGGTKLTVLG
Ans: 130

This collection of values is drawn from patent US20170081400A1.
